Target of assay: EGFR kinase domain attached to lipid vesicles (activated EGFR kinase) (Homo sapiens)
Construct: DNA encoding residues 672-998 of human EGFR was cloned into pFAST BAC HT; made in house; host or cells: Sf9 insect cells (baculovirus)
Test summary: Vesicle-based kinase assay: EGFR kinase domain attached to lipid vesicles
Assay type: biochemical
Conditions used: vesicle-based kinase assay; read-out: IC50 for inhibiting the activated EGFR kinase (kinase domain attached to lipid vesicles)
pIC50: −log10 of the molar value.
Observable: pIC50

Identify measured pIC50 corresponding to KSLPSYLNGVMPPTQSFAPDPKYVSS (chains of the parent or of the whole protein) [40-mer peptide] ~5.00

Value source: patent US20100323957A1
